System: P12-Ichikawa
Assay: cell viability relative to DMSO control; higher = less cytotoxic
Details: RPMI 5 mM glucose + 10% FBS; 48 h; 0.569 µM
Observation type: cell viability (%)
API: value field is a number in %; no unit string.

- Molecule: "COc1cc(Nc2ncc(F)c(Nc3ccc4c(n3)N(COP(=O)(O)O)C(=O)C(C)(C)O4)n2)cc(OC)c1OC"
  Target of assay: "P12-Ichikawa"
  Unit annotation: "%"
  cell viability: 92.4
- Molecule: "O=[S+]([O-])(CCSSCC[S+](=O)([O-])[O][Na])[O][Na]"
  Target of assay: "P12-Ichikawa"
  Unit annotation: "%"
  cell viability: 133
- Molecule: "O=C(O)[C@@H](c1ccc(OCc2ccc3ccccc3n2)cc1)C1CCCC1"
  Target of assay: "P12-Ichikawa"
  Unit annotation: "%"
  cell viability: 107

INPUT: Return cell viability measured with P12-Ichikawa given this molecule: `CO[C@@H]1[C@@H](OC(N)=O)[C@@H](O)[C@H](OC2=CC=C3\C(=C(NC(=O)C4=CC=C([O-])C(=C4)CC=C(C)C)/C(=O)OC3=C2C)O)OC1(C)C`
OUTPUT: 113

INPUT: Return cell viability measured with P12-Ichikawa given this molecule: `O=C(c1ccc(/C=C/c2n[nH]c3ccccc23)cc1)N1CCNCC1`
OUTPUT: 102

INPUT: Return cell viability measured with P12-Ichikawa given this molecule: `Cn1cnc(-c2cc3nccc(Oc4ccc(NC(=S)NC(=O)Cc5ccccc5)cc4F)c3s2)c1`
OUTPUT: 87.1

INPUT: Return cell viability measured with P12-Ichikawa given this molecule: `CN[C@H]1[C@H](O[C@@H]2[C@H](O[C@@H]3[C@@H](O)[C@@H](O)[C@@H](NC(=N)N)[C@@H](O)[C@H]3NC(=N)N)O[C@H](C)[C@@]2(O)C=O)O[C@@H](CO)[C@@H](O)[C@H]1O`
OUTPUT: 102

====

Items are presented alongside their recorded AUC of viability dose-response curve.
System: NOMO1
Experiment: AUC of viability dose-response curve (% viability x log10 dose units); higher = less sensitive
Conditions: RPMI 5 mM glucose + 10% FBS; 48 h
Just the number, please.

See these solved cases before continuing.
- Compound: "CCCNCC(O)COc1ccccc1C(=O)CCc1ccccc1 (stereo not given)"
  Target of assay: "NOMO1"
  AUC of viability dose-response curve: 391
- Compound: "CCOC(=O)C(C)(C)Oc1ccc(Cl)cc1"
  Target of assay: "NOMO1"
  AUC of viability dose-response curve: 453
- Compound: "OC1=CC2=C(C(=O)\\C=C(/O2)C3=CC=CC=C3)C(=C1O)O"
  Target of assay: "NOMO1"
  AUC of viability dose-response curve: 431

INPUT: State the recorded AUC of viability dose-response curve for this entry: `CN1CCN(Cc2ccc(NC(=O)Nc3ccc(Oc4cc(NC(=O)C5CC5)ncn4)cc3)cc2C(F)(F)F)CC1`
OUTPUT: 278

INPUT: State the recorded AUC of viability dose-response curve for this entry: `CCC[C@@H](C=O)NC(=O)[C@H](CC(C)C)NC(=O)[C@H](CC(C)C)NC(=O)OCc1ccccc1`
OUTPUT: 334

====

Items are presented alongside their recorded cell viability.
Test system: NOMO1
Test: cell viability relative to DMSO control; higher = less cytotoxic
Conditions: HPLM + 10% dialyzed FBS; 48 h; 0.0632 µM
API: value field is a number in %; no unit string.

See these solved cases before continuing.
- Compound: "C=C[C@H]1CN2CCC1C[C@@H]2[C@@H](O)c1ccnc2ccccc12 (some centres undefined)"
  cell viability [%]: 99.7
- Compound: "CN1CCN(Cc2ccc(NC(=O)Nc3ccc(Oc4cc(NC(=O)C5CC5)ncn4)cc3)cc2C(F)(F)F)CC1"
  cell viability [%]: 143
- Compound: "CCCC1=N[N](C)C2=C1\\N=C(/NC2=O)C3=CC(=CC=C3OCC)[S+]([O-])(=O)N4CCN(C)CC4"
  cell viability [%]: 86.1
- Compound: "CCCc1nc2c(C)cc(-c3nc4ccccc4n3C)cc2n1Cc1ccc(-c2ccccc2C(=O)O)cc1"
  cell viability [%]: 139
- Compound: "C[C@H]1[C@H](O)O[C@@H]2O[C@@]3(C)CC[C@H]4[C@H](C)CC[C@@H]1[C@@]24OO3"
  cell viability [%]: 89.9

INPUT: State the recorded cell viability for this entry: `CC[C@H](NC(C)C)[C@H](O)c1ccc(O)c2[nH]c(=O)ccc12`
OUTPUT: 108

INPUT: State the recorded cell viability for this entry: CCC(=O)OC1CCC2C3CCC/4=C/C(=O)CC[C@@]4(C)C3CC[C@]12C (some centres undefined)
OUTPUT: 122

INPUT: State the recorded cell viability for this entry: CCCNCC(O)COc1ccccc1C(=O)CCc1ccccc1 (centres undefined)
OUTPUT: 121

INPUT: State the recorded cell viability for this entry: `FC(F)(F)C1=CC=C2C(SCCCCCO\C3=C\O\C(CN4CCOCC4)=C/C3=O)=CC=NC2=C1`
OUTPUT: 122

INPUT: State the recorded cell viability for this entry: CC(Cc1ccc(O)c(O)c1)(NN)C(=O)O (centres undefined)
OUTPUT: 117

INPUT: State the recorded cell viability for this entry: `C[N]1N=CC2=C1C=C(C(=C2)OC3=CC=C(NC(=O)\C4=C\C=C(\C)N(C4=O)C5=CC=C(F)C=C5)C=C3F)C6=C[NH]N=C6`
OUTPUT: 133

INPUT: State the recorded cell viability for this entry: O=P1(N(CCCl)CCCl)NCCCO1 (centres undefined)
OUTPUT: 101

INPUT: State the recorded cell viability for this entry: `O=[S+]([O-])(O)c1ccc2cc(/N=N/c3cc([S+](=O)([O-])O)c4cccnc4c3O)ccc2c1`
OUTPUT: 129

INPUT: State the recorded cell viability for this entry: `O=C(C1CC1)N1CC[C@@H](Cn2c(-c3ccc(-c4ccc5occc5c4)cc3)nc3cnccc32)C1`
OUTPUT: 122

INPUT: State the recorded cell viability for this entry: `CCCOc1ccc2[nH]c(NC(=O)OC)nc2c1`
OUTPUT: 76.5

====

System: P12-Ichikawa
Assay: cell viability relative to DMSO control; higher = less cytotoxic
Conditions: HPLM + 10% dialyzed FBS; 48 h; 15.4 µM
Binarize cell viability at 90%; below is satisfied, at or above is not satisfied.

Illustrative cases are given below, each with its answer.
- Compound: "O=C(O)CSCC(=O)NC1CCSC1=O (centres undefined)"
  Label: "not satisfied"
- Compound: "OCCNC1CCCc2c1[nH]c1ccc(-c3ccccc3)cc21 (centres undefined)"
  Label: "satisfied"
- Compound: "NC1CCC(Nc2nc(Nc3ccc(C(=O)N4CCCCC4)cc3)c3ncn(-c4cccc(F)c4)c3n2)CC1 (centres undefined)"
  Label: "not satisfied"
- Compound: "O=[S+]([O-])(O)c1ccc2cc(/N=N/c3cc([S+](=O)([O-])O)c4cccnc4c3O)ccc2c1"
  Label: "not satisfied"
- Compound: "CN[C@H]1[C@H](O[C@@H]2[C@H](O[C@@H]3[C@@H](O)[C@@H](O)[C@@H](NC(=N)N)[C@@H](O)[C@H]3NC(=N)N)O[C@H](C)[C@@]2(O)C=O)O[C@@H](CO)[C@@H](O)[C@H]1O"
  Label: "not satisfied"
- Compound: "COCCCOc1ccnc(C[S+]([O-])c2nc3ccccc3[nH]2)c1C (centres undefined)"
  Label: "not satisfied"
- Compound: "Oc1cc2c(cc1O)C1c3ccc(O)c(O)c3OCC1(O)C2 (centres undefined)"
  Label: "not satisfied"
- Compound: "CCC[C@@H](C=O)NC(=O)[C@H](CC(C)C)NC(=O)[C@H](CC(C)C)NC(=O)OCc1ccccc1"
  Label: "satisfied"
- Compound: "COc1ccc(C(=O)CC(=O)c2ccc(C(C)(C)C)cc2)cc1"
  Label: "not satisfied"
- Compound: "CCCOc1ccc2[nH]c(NC(=O)OC)nc2c1"
  Label: "satisfied"

INPUT: Strictly below 90% in cell viability? `COC1=CC(=CC=C1)C2=CC=C(NC(=O)/C3=C(/CCC3)C(O)=O)C(=C2)F`
OUTPUT: satisfied

INPUT: Strictly below 90% in cell viability? `CO[C@@H]1[C@@H](OC(N)=O)[C@@H](O)[C@H](OC2=CC=C3\C(=C(NC(=O)C4=CC=C([O-])C(=C4)CC=C(C)C)/C(=O)OC3=C2C)O)OC1(C)C`
OUTPUT: not satisfied

INPUT: Strictly below 90% in cell viability? `CN1CC/C(CC1)=C3\c4ccccc4CC(=O)c2sccc23`
OUTPUT: not satisfied

INPUT: Strictly below 90% in cell viability? `C=CC(=O)Nc1cccc(Oc2nc(Nc3ccc(N4CCN(C)CC4)cc3OC)ncc2Cl)c1`
OUTPUT: satisfied

====

Items are presented alongside their recorded cell viability.
System: P12-Ichikawa
Assay: cell viability relative to DMSO control; higher = less cytotoxic
Settings: RPMI 5 mM glucose + 10% dialyzed FBS; 48 h; 1.71 µM
API: value field is a number in %; no unit string.

- Compound: "O=C1CCC[C@@H]2[C@H]3CCC[N+]4([O-])CCC[C@@H](CN12)[C@@H]34 (stereo partly drawn)"
  Unit annotation: "%"
  Reported measurement: 90.8
- Compound: "O=C(NCCO[N+](=O)[O-])c1cccnc1"
  Unit annotation: "%"
  Reported measurement: 112
- Compound: "CN(C)/[N+]([O-])=N/Oc1cc(ON[N+](=O)N2CCN(C(=O)c3cc(Cc4n[nH]c(=O)c5ccccc45)ccc3F)CC2)c([N+](=O)[O-])cc1[N+](=O)[O-]"
  Unit annotation: "%"
  Reported measurement: 111
- Compound: "N#CC1(c2ccc(NC(=O)c3cccnc3NCc3ccncc3)cc2)CCCC1"
  Unit annotation: "%"
  Reported measurement: 113
- Compound: "CC(C[N+](C)(C)C)OC(N)=O (stereo not drawn)"
  Unit annotation: "%"
  Reported measurement: 128
- Compound: "OC1=CC2=C(C(=O)\\C=C(/O2)C3=CC=CC=C3)C(=C1O)O"
  Unit annotation: "%"
  Reported measurement: 118
- Compound: "C=CC(=O)Nc1cccc(Oc2nc(Nc3ccc(N4CCN(C)CC4)cc3OC)ncc2Cl)c1"
  Unit annotation: "%"
  Reported measurement: 83.3

Now look at this entry.
INPUT: State the recorded cell viability for this entry: `CN(C)CC[C@H](CSc1ccccc1)Nc1ccc([S+](=O)([O-])NC(=O)c2ccc(N3CCN(Cc4ccccc4-c4ccc(Cl)cc4)CC3)cc2)cc1[N+](=O)[O-]`
OUTPUT: 76.1
